Data origin: the supplement of paper PMC9732359

- test: protein stability index of a GFP-peptide fusion (yeast GPS) (PSI 1-4); higher = more stable; sorted into four equal gates, so the index is relative within each strain
- condition.notes: san1∆
Record form. Attribute: protein stability index. Fill in for each entry.
Answers are plain numbers.

DITTSIMDNFLERTAIE [RPN1] :: 3.22
DYLNAELGEFFVNGVAT [FAS2] :: 3.06
MGAINNNIPSLTSFAEE [SNF6] :: 3.37
SKLPDPERWLPLRDRST [SRP72] :: 2.55
SVDITGGPWFTDGELDI [RPC34] :: 3.12
QTLLQRSEDPAGLGKTN [YGR119C/NUP57] :: 3.27
MLRTVTSKTVSNQFKRS [COR1] :: 2.92
LLSLINSTHLLPLQPIE [SNF12] :: 3.04

Batch of 4 sequences: report protein stability index for each.
1. VEGPKFTIDAKPPISDS [YLR335W/NUP2]
2. VSIVKLDTQLITLLPSS [SNF12]
3. LEEITQYEHLIKGIREY [YDL116W/NUP84]
4. SRIYKTIKVAGTPLLEV [SNU114]

1: 3.29; 2: 1.95; 3: 2.94; 4: 2.03

Fill in protein stability index for each of the 2 sequences listed.
1. RKVREQEELKKRQELEE [MED2]
2. SYYELETIIFDSELNRA [RRI1]

1. 1.96
2. 2.97
